System: GH3-TRE-Luc cell line
condition-label: read-out: AC50 (uM) modified / 1000; Tox21_110001=Tox21_111065; viability, 1 nM T3 present, 24 h
readout-kind: CC50 (µM)
Give just the numeric value; µM need not be written.

Query: For the molecule O=C1C2CC=CCC2C(=O)N1SC(Cl)(Cl)Cl (stereo not shown) , give its measured CC50 value.
Reply: 4.99

###

CC50 at 24 h by entry:
test-protocol: in vitro
condition-label: rat, gh3-tre-luc cells, AC50 (uM) modified / 1000

Worked set:
CC(=O)Nc1ccc(C)cc1C [N-(2,4-Dimethylphenyl)acetamide] | > 90 µM
COC(=O)c1c(C)cc(O)c(C)c1O | > 90 µM
O=c1ccc2cc(O[C@@H]3O[C@H](CO)[C@@H](O)[C@H](O)[C@H]3O)c(O)cc2o1 [Esculin] | > 20 µM
CC(=O)Nc1ccc(S(=O)(=O)Nc2cc(C)on2)cc1 [N-Acetyl sulfamethoxazole] | > 50 µM

Query: Answer with the recorded CC50 at 24 h for the molecule listed here: Cc1cc(CC(=O)O)n(C)c1C(=O)c1ccc(Cl)cc1 [Sodium zomepirac]
Reply: > 90 µM

###

test-protocol: in vitro
condition-label: rat, gh3-tre-luc cells, AC50 (uM) modified / 1000, Tox21_110001=Tox21_303249; viability, 1 nM T3 present, 24 h
readout-kind: CC50 at 24 h (µM)
Expressed in µM, but write only the number.

Query: Using the record for `c1ccc(N=NNc2ccccc2)cc1` , state its measured CC50 at 24 h.
Reply: 47.9

###

test-protocol: in vitro
condition-label: rat, gh3-tre-luc cells, AC50 (uM) modified / 1000, Tox21_110001=Tox21_301421; viability, 1 nM T3 present, 24 h
readout-kind: CC50 at 24 h

Query: Query CC50 at 24 h for `CCOP(=S)(OCC)SCn1nnc2ccccc2c1=O`
Reply: > 90 µM

###

test-protocol: in vitro
condition-label: rat, gh3-tre-luc cells, AC50 (uM) modified / 1000
Where a name gives a salt, the structure may show the parent alone.
readout-kind: CC50 at 24 h

CC1=CC=C(C(C)C)CC1 | > 90 µM
C[C@@H]1C[C@H]2[C@@H]3CCC4=CC(=O)C=C[C@]4(C)[C@@]3(F)[C@@H](O)C[C@]2(C)[C@H]1C(=O)CO | > 50 µM
CC(C)(CCl)C(=O)Cl [3-Chloro-2,2-dimethylpropanoyl chloride] | > 90 µM
O=C(Oc1ccccc1C(=O)O)c1ccccc1O [Salsalate] | > 50 µM
CN1CCN(c2c(F)cc3c(=O)c(C(=O)O)cn4c3c2SCC4)CC1 [Rufloxacin hydrochloride] | > 50 µM
CC(=O)Nc1ccc(NC(=S)NC(=O)c2ccc(C(C)(C)C)cc2)cc1 | 7.56 µM
Clc1cccc(Cl)c1N=C1NCCN1 [Clonidine hydrochloride] | > 90 µM

Now consider the entry below.
Query: Annotate the compound O=C(O)c1c(Cl)c(Cl)c(Cl)c(Cl)c1-c1c2cc(I)c(=O)c(I)c-2oc2c(I)c(O)c(I)cc12 [Rose bengal sodium] with its measured CC50 at 24 h.
Reply: 20.9 µM

###

target-of-assay: TRα ligand-binding domain (Homo sapiens)
Construct: the receptor LBDs expressed as glutathione S-transferase (GST) fusion proteins; purchased
Sequence (P10827 163-410 isoform P10827-2 limits assumed, other chains not shown): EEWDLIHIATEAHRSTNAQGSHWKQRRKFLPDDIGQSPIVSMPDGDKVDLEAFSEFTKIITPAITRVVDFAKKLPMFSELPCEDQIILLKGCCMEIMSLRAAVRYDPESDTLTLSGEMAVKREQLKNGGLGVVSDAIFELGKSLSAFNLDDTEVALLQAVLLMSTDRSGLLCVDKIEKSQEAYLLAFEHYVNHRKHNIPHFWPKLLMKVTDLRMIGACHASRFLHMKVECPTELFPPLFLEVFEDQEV
test-protocol: TRa-coa LanthaScreen TR-FRET coactivator (SRC-2 peptide) recruitment, agonist (TOX21_TRA_COA_Agonist_Followup_ratio, aeid 2230)
Format: biochemical
condition-label: hit call from tcpl; agonist
readout-kind: TRa-coa hitc
# output: bare number, no unit

Query: Recall the reported TRa-coa hitc of CC1=C(/C=C/C(C)=C\C=C\C(C)=C\C(=O)O)C(C)(C)CCC1 [9-cis Retinoic acid, reference compound] on TRα ligand-binding domain (Homo sapiens) and write it down.
Reply: 0

Query: Write TRa-coa hitc of O=C(O)CCNC(=O)c1ccccc1 [Betamipron, reference compound] ; system used: TRα ligand-binding domain (Homo sapiens)
Reply: 1

Query: # return TRa-coa hitc of O=c1[nH]cnc2c1ncn2[C@H]1CC[C@@H](CO)O1 [2',3'-Dideoxyinosine] (system: TRα ligand-binding domain (Homo sapiens))
Reply: 0

Query: // fetch TRa-coa hitc; item: O=C(Cl)OCCOCCOC(=O)Cl [Diethlylene glycol bis chloroformate] ; system: TRα ligand-binding domain (Homo sapiens)
Reply: 0

Query: Recall the reported TRa-coa hitc of `CC1(C)COP(Oc2ccccc2)OC1` when tested on TRα ligand-binding domain (Homo sapiens).
Reply: 0

Query: GET TRa-coa hitc | system: TRα ligand-binding domain (Homo sapiens) | item: Cc1cc(NC(=O)C(=O)O)cc(C)c1Oc1ccc(O)c2c1CCC2 [CP-634384, reference compound]
Reply: 1

Query: Fill in: TRa-coa hitc on TRα ligand-binding domain (Homo sapiens), entry C=C(c1ccc(C(=O)O)cc1)c1cc2c(cc1C)C(C)(C)CCC2(C)C [Bexarotene, reference compound]
Reply: 0

Query: For TRα ligand-binding domain (Homo sapiens), give TRa-coa hitc of the listed molecule: C[C@H](CCC(=O)NCC(=O)O)[C@H]1CC[C@H]2[C@@H]3[C@H](O)C[C@@H]4C[C@H](O)CC[C@]4(C)[C@H]3C[C@H](O)[C@]12C [glycocholic acid]
Reply: 0

Query: Look up and report measured TRa-coa hitc (TRα ligand-binding domain (Homo sapiens)) for the following molecule: CC1=C(/C=C/C(C)=C/C=C/C(C)=C\C(=O)O)C(C)(C)CCC1 [13-cis Retinoic acid, reference compound]
Reply: 0

###

Test system: GH3-TRE-Luc cell line
condition-label: read-out: AC50 (uM) modified / 1000; Tox21_110001=Tox21_113122; viability, 1 nM T3 present, 24 h
Structures can show the parent of a compound that is named as a salt.
readout-kind: CC50
Lab note: write values as number then unit, every time.

Query: # return CC50 of CN(C)CCC=C1c2ccccc2CCc2ccccc21 [Amitriptyline hydrochloride] (system: GH3-TRE-Luc cell line)
Reply: 18.1 µM

###

test-protocol: in vitro
condition-label: rat, gh3-tre-luc cells, AC50 (uM) modified / 1000
readout-kind: CC50 at 24 h

CCCCNC(=O)NCCCC [N,N'-Dibutylurea] | > 90 µM
Clc1nc(Cl)c(Cl)c(Cl)c1Cl [Pentachloropyridine] | > 90 µM
CCCCCCCC/C=C\CCCCCCCC(=O)OCC [Ethyl oleate] | > 90 µM
CC(C1CC1)C(O)(Cn1cncn1)c1ccc(Cl)cc1 (centres unmarked) [Cyproconazole] | > 90 µM
CC[N+](C)(CC)CCOC(=O)C(O)(c1ccccc1)c1ccccc1 [Benzactyzine methobromide] | > 50 µM
CC(C)(S)[C@@H](N)C(=O)O [D-Penicillamine] | > 50 µM

Query: Identify measured CC50 at 24 h associated with `COc1cc2nc(O)nc(O)c2cc1OC`
Reply: > 20 µM

Query: State, in one line, measured CC50 at 24 h of O=c1oc2ccccc2c(O)c1C(CC(O)c1ccc(-c2ccc(Br)cc2)cc1)c1ccccc1 (centres unmarked) [Bromadiolone]
Reply: > 90 µM

###

test-protocol: in vitro
condition-label: rat, gh3-tre-luc cells, AC50 (uM) modified / 1000, Tox21_110001=Tox21_301066; viability, 1 nM T3 present, 24 h
readout-kind: CC50 at 24 h (µM)
Form entry: value (µM) — number only.

Query: Answer with reported CC50 at 24 h of CCOC(=O)/C=C(C)/C=C/C[C@@H](C)CCCC(C)C [(7S)-Hydroprene]
Reply: 87.1

###

Tested on: GH3-TRE-Luc cell line
condition-label: read-out: AC50 (uM) modified / 1000; Tox21_110001=Tox21_300853; viability, 1 nM T3 present, 24 h
readout-kind: CC50 (µM)
Provide only the numeric value, understood in µM.

Query: Input CCCCCCCCCCCCCCCC[N+](C)(C)C [Hexadecyltrimethylammonium bromide] , output reported CC50.
Reply: 11.7

###

Tested on: GH3-TRE-Luc cell line
condition-label: read-out: AC50 (uM) modified / 1000; Tox21_110001=Tox21_300403; viability, 1 nM T3 present, 24 h
readout-kind: CC50 (µM)
The response must be a number in µM with no trailing unit.

Query: Specify CC50 for `CCN(CC)C(=S)SSC(=S)N(CC)CC` and stop.
Reply: 0.0747

###

Reported CC50 at 24 h values are given for each entry in this list.
test-protocol: in vitro
condition-label: rat, gh3-tre-luc cells, AC50 (uM) modified / 1000
Counter-ions that a name gives are not always drawn.

The following compounds have reported results that may help.
COc1ccc(C(=O)N2CCN(CC(=O)N3CCOCC3)CC2)cc1 | > 50 µM
C=CCOc1ccccc1OCC(O)CNC(C)C (stereo not shown) [Oxprenolol hydrochloride] | > 20 µM
O=C(NC(Cc1cc(=O)[nH]c2ccccc12)C(=O)O)c1ccc(Cl)cc1 (stereo not shown) [Rebamipide] | > 50 µM
CN=C(N)NC(=O)Nc1c(C)cccc1C | > 50 µM
Oc1ccc(Cc2ccccc2O)cc1 [2-(4-Hydroxybenzyl)phenol] | > 90 µM
O=C(O)C(=O)Cc1c[nH]c2ccccc12 | > 90 µM
CCC1COC(=O)O1 (stereo not shown) [Butylene carbonate] | > 90 µM
O=C(O)c1ccccc1C(=O)Nc1ccc(S(=O)(=O)Nc2nccs2)cc1 | > 50 µM

Query: Determine its reported CC50 at 24 h: NS(=O)(=O)c1cc(Cl)c(Cl)c(S(N)(=O)=O)c1 [Dichlorphenamide]
Reply: > 20 µM

Query: Report measured CC50 at 24 h; entry is CCCCCCCCCCCCOC(C)=O [Dodecyl acetate]
Reply: > 90 µM
